FYI, the data here is from patent US11713338B2.

- TARGET_OR_TEST_SYSTEM: integrin α4β1 (RAMOS human cells adhering to VCAM-1) (Homo sapiens, UniProt P05556+P13612)
- Construct: Ramos cells, which express integrin α4β1; host or cells: RAMOS
- Sequence (P13612 34-1032): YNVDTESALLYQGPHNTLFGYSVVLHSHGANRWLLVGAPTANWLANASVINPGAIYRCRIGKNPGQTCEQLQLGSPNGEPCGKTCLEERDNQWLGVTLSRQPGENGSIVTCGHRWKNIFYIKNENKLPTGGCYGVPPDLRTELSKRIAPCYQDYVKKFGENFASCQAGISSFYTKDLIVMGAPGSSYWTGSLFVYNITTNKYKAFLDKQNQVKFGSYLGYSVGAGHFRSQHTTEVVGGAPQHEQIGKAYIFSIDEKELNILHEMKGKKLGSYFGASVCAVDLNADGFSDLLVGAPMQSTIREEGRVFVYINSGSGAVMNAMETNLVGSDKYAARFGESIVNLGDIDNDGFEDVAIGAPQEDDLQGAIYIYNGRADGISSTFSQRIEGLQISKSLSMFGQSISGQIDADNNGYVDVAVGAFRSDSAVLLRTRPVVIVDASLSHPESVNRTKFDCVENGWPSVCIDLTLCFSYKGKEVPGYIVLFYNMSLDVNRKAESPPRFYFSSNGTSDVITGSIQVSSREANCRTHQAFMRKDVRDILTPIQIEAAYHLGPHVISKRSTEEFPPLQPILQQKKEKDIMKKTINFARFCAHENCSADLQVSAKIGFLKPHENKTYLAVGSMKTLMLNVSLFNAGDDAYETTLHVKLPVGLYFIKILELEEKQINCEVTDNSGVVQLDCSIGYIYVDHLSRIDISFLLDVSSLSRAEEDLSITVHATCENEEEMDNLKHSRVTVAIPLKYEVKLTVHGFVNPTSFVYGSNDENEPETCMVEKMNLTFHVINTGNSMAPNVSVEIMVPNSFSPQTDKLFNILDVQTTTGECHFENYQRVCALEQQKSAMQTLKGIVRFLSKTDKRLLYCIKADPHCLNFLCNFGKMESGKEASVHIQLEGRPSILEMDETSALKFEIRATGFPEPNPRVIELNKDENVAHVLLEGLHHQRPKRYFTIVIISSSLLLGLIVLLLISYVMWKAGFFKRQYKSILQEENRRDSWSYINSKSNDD
- Sequence (P05556 21-798): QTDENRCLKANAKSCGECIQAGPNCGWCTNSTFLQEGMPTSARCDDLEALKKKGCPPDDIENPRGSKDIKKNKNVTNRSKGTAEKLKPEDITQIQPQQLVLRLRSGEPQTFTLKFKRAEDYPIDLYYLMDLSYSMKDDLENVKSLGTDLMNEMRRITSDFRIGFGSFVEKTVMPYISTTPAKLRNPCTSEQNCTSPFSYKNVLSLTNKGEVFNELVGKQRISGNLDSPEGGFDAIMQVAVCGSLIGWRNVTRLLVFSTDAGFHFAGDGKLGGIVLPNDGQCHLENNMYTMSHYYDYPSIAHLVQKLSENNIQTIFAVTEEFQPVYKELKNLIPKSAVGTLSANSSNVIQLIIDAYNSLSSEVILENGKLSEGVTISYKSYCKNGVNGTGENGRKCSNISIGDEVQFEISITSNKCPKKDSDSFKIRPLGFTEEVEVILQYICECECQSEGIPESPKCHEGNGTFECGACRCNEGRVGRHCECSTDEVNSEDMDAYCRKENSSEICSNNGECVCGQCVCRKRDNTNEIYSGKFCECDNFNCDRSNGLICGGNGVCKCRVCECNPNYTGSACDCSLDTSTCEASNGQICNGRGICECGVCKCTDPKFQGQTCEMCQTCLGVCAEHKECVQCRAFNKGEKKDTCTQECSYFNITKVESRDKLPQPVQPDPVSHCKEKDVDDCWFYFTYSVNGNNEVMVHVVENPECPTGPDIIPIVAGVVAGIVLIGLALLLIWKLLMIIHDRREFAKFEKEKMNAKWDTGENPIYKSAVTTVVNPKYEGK
- TEST_METHOD_NOTES: Integrin α4β1-VCAM cell adhesion assay (RAMOS cells)
- Assay type: cell-based
- MEASUREMENT_SETUP: Ramos cells adhering to VCAM; read-out: Ramos Adhesion α4β1/VCAM IC50
- Experimental: Integrin α4β1-VCAM Cell Adhesion Assay The plate was incubated overnight at 4° C. and washed twice with 150 μl per well wash buffer (0.05% Tween 20 in PBS), blocked with 250 μl per well blocking buffer (1% non-fat dry milk in PBS), for 1 hour at room temperature. […] To calculate the dose response, the fluorescence value of control wells not containing cells was subtracted from each test well.
Could you please mark 1 for values of IC50 below 900 nM and 0 for values at or above it?

These solved cases illustrate the format of a correct answer.
[[record]]
molecule = "CC(C)C[C@@H]1NC(=O)c2ccc(-c3ccc(N4CCN(C(=O)COCC(=O)N5CCN(c6ccc(-c7ccc8cc7CNC(=O)[C@@H]7CCCN7[C@H](C(=O)NC(C)(C)C)[C@H](C)NC(=O)[C@H]([C@@H](C)O)NC(=O)[C@H](CC(=O)O)NC(=O)[C@H](CC(C)C)NC8=O)cc6)CC5)CC4)cc3)c(c2)CNC(=O)[C@@H]2CCCN2[C@H](C(=O)NC(C)(C)C)[C@H](C)NC(=O)[C@H]([C@@H](C)O)NC(=O)[C@H](CC(=O)O)NC1=O [Compound 390]"
class_assignment = 1

[[record]]
molecule = "CC(C)C[C@@H]1NC(=O)c2ccc(-c3ccc(N4CCN(C(=O)c5cc6ccccc6c(Cc6c(O)c(C(=O)N7CCN(c8ccc(-c9ccc%10cc9CNC(=O)[C@@H]9CCCN9[C@H](C(=O)NC(C)(C)C)[C@H](C)NC(=O)[C@H]([C@@H](C)O)NC(=O)[C@H](CC(=O)O)NC(=O)[C@H](CC(C)C)NC%10=O)cc8)CC7)cc7ccccc67)c5O)CC4)cc3)c(c2)CNC(=O)[C@@H]2CCCN2[C@H](C(=O)NC(C)(C)C)[C@H](C)NC(=O)[C@H]([C@@H](C)O)NC(=O)[C@H](CC(=O)O)NC1=O [Compound 502]"
class_assignment = 1

[[record]]
molecule = "CC(C)C[C@@H]1NC(=O)C[C@H](CCCCN)N(C)C(=O)[C@H](CCCCNC(=O)CCOCCOCCOCCOCCOCCOCCOCCC(=O)NCCCC[C@@H]2NC(=O)[C@@H]3CCCN3[C@H](C(=O)NC(C)(C)C)[C@H](C)NC(=O)[C@H]([C@@H](C)O)NC(=O)[C@H](CC(=O)O)NC(=O)[C@H](CC(C)C)NC(=O)C[C@H](CCCCN)N(C)C2=O)NC(=O)[C@@H]2CCCN2[C@H](C(=O)NC(C)(C)C)[C@H](C)NC(=O)[C@H]([C@@H](C)O)NC(=O)[C@H](CC(=O)O)NC1=O [Compound 536]"
class_assignment = 0


Does the reported IC50 of the following molecule sit strictly below 900 nM? CC(C)C[C@@H]1NC(=O)c2ccc(-c3ccc(N4CCN(C(=O)c5ccc(C(=O)N6CCN(c7ccc(-c8ccc9cc8CNC(=O)[C@@H]8CCCN8[C@H](C(=O)NC(C)(C)C)[C@H](C)NC(=O)[C@H]([C@@H](C)O)NC(=O)[C@H](CC(=O)O)NC(=O)[C@H](CC(C)C)NC9=O)cc7)CC6)s5)CC4)cc3)c(c2)CNC(=O)[C@@H]2CCCN2[C@H](C(=O)NC(C)(C)C)[C@H](C)NC(=O)[C@H]([C@@H](C)O)NC(=O)[C@H](CC(=O)O)NC1=O [Compound 470]
0

Take the molecule CC(C)C[C@@H]1NC(=O)c2ccc(-c3ccc(N4CCN(CCC(=O)N5CCN(c6ccc(-c7ccc8cc7CNC(=O)[C@@H]7CCCN7[C@H](C(=O)NC(C)(C)C)[C@H](C)NC(=O)[C@H]([C@@H](C)O)NC(=O)[C@H](CC(=O)O)NC(=O)[C@H](CC(C)C)NC8=O)cc6)CC5)CC4)cc3)c(c2)CNC(=O)[C@@H]2CCCN2[C@H](C(=O)NC(C)(C)C)[C@H](C)NC(=O)[C@H]([C@@H](C)O)NC(=O)[C@H](CC(=O)O)NC1=O [Compound 482] and say whether its IC50 is less than 900 nM.
1
